Below, each entry is listed alongside its reported pIC50.
# Tested on: Plasmodium falciparum
# assay_text: Antimalarial activity against drug-resistant Plasmodium falciparum D6
# Format: functional, organism-based
pIC50: −log10 of the molar value.

Recorded pIC50, per entry:
NCCCCCCNS(=O)(=O)c1cccc2c(Cl)cccc12 :: 5.06
O=S(=O)(c1cccc2cnccc12)N1CCNCC1 :: < 4.44
C[C@H]1CNCCN1S(=O)(=O)c1cccc2cnccc12 :: < 4.16
CNCCNS(=O)(=O)c1cccc2cnccc12 :: < 4.13
O=S(=O)(NCCNC/C=C/c1ccc(Br)cc1)c1cccc2cnccc12 :: 5.32

--- query ---
Recorded pIC50 of NCCNS(=O)(=O)c1cccc2cnccc12 , please. < 4.14

###

# System: Plasmodium falciparum
# assay_text: Antimalarial activity against drug-resistant Plasmodium falciparum W2
# Format: functional, organism-based
# maps each entry to its IC50
Record the value in µM, omitting the unit from your answer.

NCCCCCCNS(=O)(=O)c1cccc2c(Cl)cccc12 :: 15

Look up IC50 for this compound: O=S(=O)(NCCNC/C=C/c1ccc(Br)cc1)c1cccc2cnccc12 2.1

Now consider O=S(=O)(c1cccc2cnccc12)N1CCNCC1 and answer again. 4.3

Same question, C[C@H]1CNCCN1S(=O)(=O)c1cccc2cnccc12 this time 5.4

###

# assayed_target: UniProtKB P90584
# Sequence (P90584 whole entry): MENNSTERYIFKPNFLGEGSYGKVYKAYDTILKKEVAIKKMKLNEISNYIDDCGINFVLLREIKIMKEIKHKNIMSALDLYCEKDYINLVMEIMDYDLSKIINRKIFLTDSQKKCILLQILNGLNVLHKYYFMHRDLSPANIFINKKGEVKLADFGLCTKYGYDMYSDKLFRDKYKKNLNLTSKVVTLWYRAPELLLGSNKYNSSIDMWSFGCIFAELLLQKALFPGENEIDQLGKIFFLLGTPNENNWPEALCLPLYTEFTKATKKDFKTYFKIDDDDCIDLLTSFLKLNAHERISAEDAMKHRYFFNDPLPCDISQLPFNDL
pIC50: −log10 of the molar value.
measured_parameter: pIC50

Known results for compounds:
O=S(=O)(c1cccc2cnccc12)N1CCNCC1 :: < 3.30
NCCCCNS(=O)(=O)c1cccc2c(Cl)cccc12 :: < 3.30
O=S(=O)(NCCNC/C=C/c1ccc(Br)cc1)c1cccc2cnccc12 :: < 3.30
NCCCCCCNS(=O)(=O)c1cccc2c(Cl)cccc12 :: < 3.30

Which value of pIC50 has been reported for C[C@H]1CNCCN1S(=O)(=O)c1cccc2cnccc12 in the records? < 3.30

Next: N=C(N)NCCNS(=O)(=O)c1cccc2cnccc12 < 3.30

Follow-up item: CNCCNS(=O)(=O)c1cccc2cnccc12 4.15

Could you do the same for NCCNS(=O)(=O)c1cccc2cnccc12 , please? 6.15

Let us now turn to NCCCCNS(=O)(=O)c1ccc2ccccc2c1 < 3.30
